Hey, just so you know, these numbers are from patent US20160362416A1.

- Tested on: NS5A chimeric genotype 1b Con1 replicon with genotype 4a ED43 strain NS5A gene
- Experimental Details: HCV genotype 4a NS5A chimeric replicon assay
- Format: cell-based
- Details: Hepatitis C virus, 72 h, read-out: 4a (s) (nM)

# Compound, EC50 [nM]
data = [
    ("CC[C@H](C)[C@H](NC(=O)OC)C(=O)N1[C@H](c2ncc(-c3ccc4c(c3)COc3cc5c(ccc6nc([C@@H]7CC[C@H](C)N7C(=O)[C@@H](NC(=O)OC)C7C[C@@H](C)O[C@H](C)C7)[nH]c65)cc3-4)[nH]2)C[C@@H]2CCC[C@@H]21 (stereo partly drawn)", 0.017),
    ("COC(=O)N[C@H](C(=O)N1[C@@H](C)CC[C@H]1c1ncc(-c2ccc3c(c2)COc2cc4c(ccc5nc([C@@H]6CC[C@H](C)N6C(=O)[C@@H](NC(=O)OC)[C@@H]6CCCOC6)[nH]c54)cc2-3)[nH]1)C(C)C", 0.018),
    ("COC(=O)N[C@H](C(=O)N1[C@@H](C)CC[C@H]1c1ncc(-c2ccc3c(c2)COc2cc4c(ccc5nc([C@@H]6C[C@@H]7CCC[C@@H]7N6C(=O)[C@@H](NC(=O)OC)C6CCOCC6)[nH]c54)cc2-3)[nH]1)C(C)C [Comp 10, reference compound]", 21.8),
    ("COC(=O)N[C@H](C(=O)N1[C@H](c2ncc(-c3ccc4c(c3)COc3cc5c(ccc6nc([C@@H]7C[C@H](C)[C@H](C)N7C(=O)[C@@H](NC(=O)OC)C7C[C@@H](C)O[C@H](C)C7)[nH]c65)cc3-4)[nH]2)C[C@H](C)[C@@H]1C)C1C[C@@H](C)O[C@H](C)C1 (stereo partly drawn)", 0.013),
    ("COC[C@H]1C[C@@H](c2ncc(-c3ccc4c(c3)COc3cc5c(ccc6nc([C@@H]7CC[C@H](C)N7C(=O)[C@@H](NC(=O)OC)C(C)C)[nH]c65)cc3-4)[nH]2)N(C(=O)[C@@H](NC(=O)OC)C2C[C@@H](C)O[C@H](C)C2)C1 (stereo partly drawn)", 0.006),
    ("COC(=O)N[C@H](C(=O)N1[C@@H](C)CC[C@H]1c1ncc(-c2ccc3c(c2)COc2cc4c(ccc5nc([C@@H]6CC[C@H](C)N6C(=O)[C@H](NC(=O)OC)[C@H]6C[C@@H](C)O[C@@H](C)C6)[nH]c54)cc2-3)[nH]1)C(C)C", 0.935),
    ("CC[C@H](C)[C@H](NC(=O)OC)C(=O)N1[C@H](c2ncc(-c3ccc4c(c3)COc3cc5c(ccc6nc([C@@H]7CC[C@H](C)N7C(=O)[C@@H](NC(=O)OC)C7CCOCC7)[nH]c65)cc3-4)[nH]2)C[C@@H]2CCC[C@@H]21 [Comp 9, reference compound]", 40.9),
    ("CC[C@H]1CC[C@@H](c2nc3ccc4cc5c(cc4c3[nH]2)OCc2cc(-c3cnc([C@@H]4CC[C@H](C)N4C(=O)[C@@H](NC(=O)OC)C(C)C)[nH]3)ccc2-5)N1C(=O)[C@@H](NC(=O)OC)[C@@H]1CCCOC1", 0.017),
    ("COC(=O)N[C@H](C(=O)N1[C@@H](C)CC[C@H]1c1nc2ccc3cc4c(cc3c2[nH]1)OCc1cc(-c2cnc([C@@H]3CC[C@H](C)N3C(=O)[C@@H](NC(=O)OC)[C@H]3C[C@@H](C)O[C@@H](C)C3)[nH]2)ccc1-4)C(C)C", 0.018),
    ("COC(=O)N[C@H](C(=O)N1[C@@H](C)CC[C@H]1c1ncc(-c2ccc3c(c2)COc2cc4c(ccc5nc([C@@H]6CC[C@H](C)N6C(=O)[C@@H](NC(=O)OC)C6C[C@@H](C)O[C@H](C)C6)[nH]c54)cc2-3)[nH]1)C1C[C@@H](C)O[C@H](C)C1 (stereo partly drawn)", 0.017),
    ("COC(=O)N[C@H](C(=O)N1[C@H](c2ncc(-c3ccc4c(c3)COc3cc5c(ccc6nc([C@@H]7CC[C@H](C)N7C(=O)[C@@H](NC(=O)OC)C7C[C@@H](C)O[C@H](C)C7)[nH]c65)cc3-4)[nH]2)C[C@@H]2CCC[C@@H]21)C(C)C (stereo partly drawn)", 0.011),
    ("CC[C@H](C)[C@H](NC(=O)OC)C(=O)N1[C@@H](C)CC[C@H]1c1ncc(-c2ccc3c(c2)COc2cc4c(ccc5nc([C@@H]6CC[C@H](C)N6C(=O)[C@@H](NC(=O)OC)C6C[C@@H](C)O[C@H](C)C6)[nH]c54)cc2-3)[nH]1 (stereo partly drawn)", 0.008),
    ("COC[C@H]1C[C@@H](c2ncc(-c3ccc4c(c3)COc3cc5c(ccc6nc([C@@H]7CC[C@H](C)N7C(=O)[C@@H](NC(=O)OC)C7C[C@@H](C)O[C@H](C)C7)[nH]c65)cc3-4)[nH]2)N(C(=O)[C@@H](NC(=O)OC)C2C[C@@H](C)O[C@H](C)C2)C1 (stereo partly drawn)", 0.024),
    ("COC(=O)N[C@H](C(=O)N1[C@@H](C)CC[C@H]1c1ncc(-c2ccc3c(c2)COc2cc4c(ccc5nc([C@@H]6CC[C@H](C)N6C(=O)[C@@H](NC(=O)OC)C6CCOCC6)[nH]c54)cc2-3)[nH]1)C1CCOCC1 [Comp 6, reference compound]", 0.014),
    ("COC(=O)N[C@H](C(=O)N1[C@@H](c2ncc(-c3ccc4c(c3)COc3cc5c(ccc6nc([C@H]7C[C@@H](C)[C@@H](C)N7C(=O)[C@@H](NC(=O)OC)C7C[C@@H](C)O[C@H](C)C7)[nH]c65)cc3-4)[nH]2)C[C@@H](C)[C@H]1C)C1C[C@@H](C)O[C@H](C)C1 (stereo partly drawn)", 6.24),
]

* * *

- Test system: NS5A chimeric genotype 2a JFH-1 replicon with genotype 2a J6 strain NS5A gene (M31)
- Experimental Details: HCV genotype 2a J6 NS5A chimeric replicon assay, transient (t)
- Type: cell-based
- Details: Hepatitis C virus, 72 h, read-out: 2a J6 (t) (nM)
Entries annotated with measured EC50
Assay Readout: EC50 (nM)

# Compound, Result Number
data = [
    ("COC(=O)N[C@H](C(=O)N1[C@@H](C)CC[C@H]1c1ncc(-c2ccc3c(c2)COc2cc4c(ccc5nc([C@@H]6C[C@@H]7CCC[C@@H]7N6C(=O)[C@@H](NC(=O)OC)C6C[C@@H](C)O[C@H](C)C6)[nH]c54)cc2-3)[nH]1)C(C)C (some centres unmarked) [Example AX]", 0.046),
    ("COC(=O)N[C@H](C(=O)N1[C@@H](C)CC[C@H]1c1ncc(-c2ccc3c(c2)COc2cc4c(ccc5nc([C@@H]6CC[C@H](C)N6C(=O)[C@@H](NC(=O)OC)C6C[C@@H](C)O[C@H](C)C6)[nH]c54)cc2-3)[nH]1)C1C[C@@H](C)O[C@H](C)C1 (some centres unmarked) [Example AU]", 0.008),
]

* * *

Entries annotated with measured EC50
- System: NS5A chimeric genotype 2a JFH-1 replicon with genotype 2a J6 strain NS5A gene (M31)
- Experimental Details: HCV genotype 2a J6 NS5A chimeric replicon assay, transient (t)
- Type: cell-based
- Details: Hepatitis C virus, 72 h, read-out: 2a J6 (t) (nM)

# Compound, Assay System, EC50, nM
records = [
    ("COC(=O)N[C@H](C(=O)N1[C@@H](C)CC[C@H]1c1nc2ccc3cc4c(cc3c2[nH]1)OCc1cc(-c2cnc([C@@H]3CC[C@H](C)N3C(=O)[C@@H](NC(=O)OC)C3CCOCC3)[nH]2)ccc1-4)C(C)C [Comp 7, reference compound]", "NS5A chimeric genotype 2a JFH-1 replicon with genotype 2a J6 strain NS5A gene (M31)", 0.035),
    ("CC[C@H]1CC[C@@H](c2nc3ccc4cc5c(cc4c3[nH]2)OCc2cc(-c3cnc([C@@H]4CC[C@H](C)N4C(=O)[C@@H](NC(=O)OC)C(C)C)[nH]3)ccc2-5)N1C(=O)[C@@H](NC(=O)OC)C1CCOCC1 [Comp 3, reference compound]", "NS5A chimeric genotype 2a JFH-1 replicon with genotype 2a J6 strain NS5A gene (M31)", 0.061),
]

* * *

- Tested on: Q30E in genotype 1a NS5A replicon
- Experimental Details: Resistance mutant replicon assay, genotype 1a NS5A Q30E
- Assay type: cell-based, HCV
- Details: Hepatitis C virus, read-out: 1a Q30E (nM)
Entries annotated with measured EC50

# Molecule, EC50 (nM)
data = [
    ("COC(=O)N[C@H](C(=O)N1[C@H](c2ncc(-c3ccc4c(c3)COc3cc5c(ccc6nc([C@@H]7CC[C@H](C)N7C(=O)[C@@H](NC(=O)OC)C7CCOCC7)[nH]c65)cc3-4)[nH]2)C[C@@H]2CCC[C@@H]21)C(C)C [Comp 8, reference compound]", 0.979),
    ("COC(=O)N[C@H](C(=O)N1[C@@H](C)CC[C@H]1c1nc2ccc3cc4c(cc3c2[nH]1)OCc1cc(-c2cnc([C@@H]3CC[C@H](C)N3C(=O)[C@@H](NC(=O)OC)[C@H]3C[C@@H](C)O[C@@H](C)C3)[nH]2)ccc1-4)C(C)C", 1.78),
    ("COC(=O)N[C@H](C(=O)N1[C@@H](C)CC[C@H]1c1ncc(-c2ccc3c(c2)COc2cc4c(ccc5nc([C@@H]6CC[C@H](C)N6C(=O)[C@@H](NC(=O)OC)[C@H]6CCCOC6)[nH]c54)cc2-3)[nH]1)C(C)C", 2.11),
    ("CC[C@H]1CC[C@@H](c2nc3ccc4cc5c(cc4c3[nH]2)OCc2cc(-c3cnc([C@@H]4CC[C@H](C)N4C(=O)[C@@H](NC(=O)OC)C(C)C)[nH]3)ccc2-5)N1C(=O)[C@@H](NC(=O)OC)C1CCOCC1 [Comp 3, reference compound]", 0.526),
    ("CC[C@H]1CC[C@@H](c2nc3ccc4cc5c(cc4c3[nH]2)OCc2cc(-c3cnc([C@@H]4CC[C@H](C)N4C(=O)[C@@H](NC(=O)OC)C(C)C)[nH]3)ccc2-5)N1C(=O)[C@@H](NC(=O)OC)C1C[C@@H](C)O[C@H](C)C1 (some centres unmarked)", 0.312),
    ("COC(=O)N[C@H](C(=O)N1[C@@H](C)CC[C@H]1c1ncc(-c2ccc3c(c2)COc2cc4c(ccc5nc([C@@H]6C[C@H](C)CN6C(=O)[C@@H](NC(=O)OC)C6CCOCC6)[nH]c54)cc2-3)[nH]1)C(C)C [Comp 13, reference compound]", 0.371),
    ("COC(=O)N[C@H](C(=O)N1[C@@H](C)CC[C@H]1c1nc2ccc3cc4c(cc3c2[nH]1)OCc1cc(-c2cnc([C@@H]3CC[C@H](C)N3C(=O)[C@@H](NC(=O)OC)C3C[C@@H](C)O[C@H](C)C3)[nH]2)ccc1-4)C(C)C (some centres unmarked)", 0.115),
    ("CC[C@H]1C[C@@H](c2nc3ccc4cc5c(cc4c3[nH]2)OCc2cc(-c3cnc([C@@H]4CC[C@H](C)N4C(=O)[C@@H](NC(=O)OC)C(C)C)[nH]3)ccc2-5)N(C(=O)[C@@H](NC(=O)OC)C2C[C@@H](C)O[C@H](C)C2)C1 (some centres unmarked)", 0.097),
]
